Target Desc: cAMP and cAMP-inhibited cGMP 3',5'-cyclic phosphodiesterase 10A (Homo sapiens, UniProt Q9Y233)
Sequence (Q9Y233 whole entry): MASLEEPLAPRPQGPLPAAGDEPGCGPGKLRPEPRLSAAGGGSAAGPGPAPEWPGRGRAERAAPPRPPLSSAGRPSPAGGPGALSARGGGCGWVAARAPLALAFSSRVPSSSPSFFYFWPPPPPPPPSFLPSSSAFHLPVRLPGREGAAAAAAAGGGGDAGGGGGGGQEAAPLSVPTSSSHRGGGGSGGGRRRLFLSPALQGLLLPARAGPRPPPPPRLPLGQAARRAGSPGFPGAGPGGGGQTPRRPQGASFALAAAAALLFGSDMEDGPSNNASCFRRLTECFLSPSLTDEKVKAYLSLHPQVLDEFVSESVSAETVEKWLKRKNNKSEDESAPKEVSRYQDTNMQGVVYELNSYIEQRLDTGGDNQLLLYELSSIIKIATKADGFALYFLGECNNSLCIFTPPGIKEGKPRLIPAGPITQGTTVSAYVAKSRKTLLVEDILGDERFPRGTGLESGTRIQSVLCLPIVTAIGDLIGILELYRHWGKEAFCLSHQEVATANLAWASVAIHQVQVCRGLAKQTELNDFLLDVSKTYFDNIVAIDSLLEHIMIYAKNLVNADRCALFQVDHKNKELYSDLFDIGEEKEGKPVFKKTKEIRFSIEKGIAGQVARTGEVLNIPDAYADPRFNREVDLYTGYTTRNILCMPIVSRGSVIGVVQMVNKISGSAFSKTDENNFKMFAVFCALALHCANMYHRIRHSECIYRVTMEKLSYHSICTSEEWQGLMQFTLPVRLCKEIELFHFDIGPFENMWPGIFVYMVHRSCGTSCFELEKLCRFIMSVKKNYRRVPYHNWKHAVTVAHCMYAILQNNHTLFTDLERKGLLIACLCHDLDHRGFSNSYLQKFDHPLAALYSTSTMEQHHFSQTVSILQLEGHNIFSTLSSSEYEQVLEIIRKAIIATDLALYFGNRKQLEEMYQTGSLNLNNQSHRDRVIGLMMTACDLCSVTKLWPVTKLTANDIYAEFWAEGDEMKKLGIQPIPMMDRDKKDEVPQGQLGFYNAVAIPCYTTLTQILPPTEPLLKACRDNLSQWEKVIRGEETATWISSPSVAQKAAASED
Method Description: Inhibition of recombinant human PDE10A assessed as reduction of [3H]-cAMP hydrolysis preincubated for 5 mins followed by [3H]-cAMP addition measured after 20 mins by scintillation proximity assay
pIC50: −log10 of the molar value.
Observation Type: pIC50

>>> print(df.to_string())
                            smiles_notation  measured
0  Cn1ncc(-c2ccncc2)c1-c1ccc(OCc2cc(COCCF)c3ccccc3n2)cc1      8.95
1  Cn1cc(-c2ccncc2)c(-c2ccc(OCc3ccc4cc(OCCF)ccc4n3)cc2)n1      7.47
2  Cn1cc(-c2ccncc2)c(-c2ccc(OCc3cc(OCCOCCF)c4ccccc4n3)cc2)n1      9.57
3  Cn1ncc(-c2ccncc2)c1-c1ccc(OCc2cc(OCCOCCOCCF)c3ccccc3n2)cc1      9.33
4  Cn1cc(-c2ccncc2)c(-c2ccc(OCc3cc(F)c4ccccc4n3)cc2)n1      9.15
5  Cn1ncc(-c2ccncc2)c1-c1ccc(OCc2cc(-n3cc(CCF)nn3)c3ccccc3n2)cc1      8.30
6  Cn1cc(-c2ccncc2)c(-c2ccc(OCc3cc(OCCF)c4ccccc4n3)cc2)n1      9.49
7  Cn1cc(-c2ccncc2)c(-c2ccc(OCc3cc(OCCOCCOCCOCCF)c4ccccc4n3)cc2)n1      9.48

These data points were gathered from ChEMBL document CHEMBL3627597.
